biological target: HLA-A*68:01; test: IEDB peptide-MHC binding, purified MHC/competitive/radioactivity; filed as Kd, often an IC50 or EC50 that approximates it; bounds were set here for any values at or beyond the usual limits of such assays; details: source organism: Dengue virus 3 Martinique/1243/1999
pKd: −log10 of the molar value.
Value Type: pKd

chain=GTLGLECSPR data_value=6.97
chain=TSADLTVEK data_value=7.81
chain=TSIFAGHLK data_value=8.37
chain=TAASAAQRR data_value=7.60

---

molecular target: HLA-A*02:19; experiment: IEDB peptide-MHC binding, purified MHC/competitive/fluorescence; filed as Kd, often an IC50 or EC50 that approximates it; bounds were set here for any values at or beyond the usual limits of such assays; conditions: source organism: Vibrio vulnificus CMCP6
Value Type: Kd

chain=WLAGFEPSE data_value="≥ 20 µM"

---

target: HLA-B*44:02; assay: IEDB peptide-MHC binding, purified MHC/competitive/radioactivity; filed as Kd, often an IC50 or EC50 that approximates it; bounds were set here for any values at or beyond the usual limits of such assays; conditions: source organism: Homo sapiens
Value Type: Kd (nM)

chain=SELFRSRLDSY system_tested=HLA-B*44:02 data_value=5.4

---

target: HLA-B*44:02; test: IEDB peptide-MHC binding, purified MHC/direct/fluorescence; filed as Kd, often an IC50 or EC50 that approximates it; bounds were set here for any values at or beyond the usual limits of such assays; settings: source organism: Influenza A virus (A/tern/Australia/1/04(H2N5))
Value Type: Kd

chain=LLTEVETYV data_value="≥ 20 µM"

---

biological target: HLA-A*32:01; assay: IEDB peptide-MHC binding, purified MHC/competitive/radioactivity; filed as Kd, often an IC50 or EC50 that approximates it; bounds were set here for any values at or beyond the usual limits of such assays; conditions: source organism: Lymphocytic choriomeningitis virus (strain Armstrong)
pKd: −log10 of the molar value.
Value Type: pKd

chain=ESFVRKQKY data_value="≤ 4.11"

---

biological target: HLA-B*18:01; experiment: IEDB peptide-MHC binding, purified MHC/competitive/fluorescence; filed as Kd, often an IC50 or EC50 that approximates it; bounds were set here for any values at or beyond the usual limits of such assays; details: source organism: Orthomarburgvirus marburgense
Value Type: Kd

chain=NRWKSWFSY value_type=Kd data_value="≥ 20 µM"

---

molecular target: HLA-A*24:03; experiment: IEDB peptide-MHC binding, purified MHC/competitive/fluorescence; filed as Kd, often an IC50 or EC50 that approximates it; bounds were set here for any values at or beyond the usual limits of such assays; conditions: source organism: Escherichia coli 536
pKd: −log10 of the molar value.
Value Type: pKd

chain=QMLPGYFRF value_type=pKd data_value=9.70

---

target: HLA-C*08:02; test: IEDB peptide-MHC binding, purified MHC/direct/fluorescence; filed as Kd, often an IC50 or EC50 that approximates it; bounds were set here for any values at or beyond the usual limits of such assays; conditions: source organism: Francisella tularensis subsp. tularensis FSC198
Value Type: Kd (nM)

chain=LSDNLSLVY system_tested=HLA-C*08:02 data_value=552

---

target: HLA-B*57:01; assay: IEDB peptide-MHC binding, purified MHC/direct/fluorescence; filed as Kd, often an IC50 or EC50 that approximates it; bounds were set here for any values at or beyond the usual limits of such assays; conditions: source organism: Mammarenavirus machupoense
Value Type: Kd

chain=FHEFLSSKL system_tested=HLA-B*57:01 data_value="≥ 20 µM"

---

biological target: HLA-B*40:01; experiment: IEDB peptide-MHC binding, purified MHC/direct/fluorescence; filed as Kd, often an IC50 or EC50 that approximates it; bounds were set here for any values at or beyond the usual limits of such assays; details: source organism: Influenza A virus (A/Wisconsin/4755/1994(H1N1))
pKd: −log10 of the molar value.
Value Type: pKd

chain=DPKKTGGPI system_tested=HLA-B*40:01 data_value="≤ 4.70"

---

Reported pKd values follow for various sequences
molecular target: HLA-B*08:01; experiment: IEDB peptide-MHC binding, purified MHC/competitive/radioactivity; filed as Kd, often an IC50 or EC50 that approximates it; bounds were set here for any values at or beyond the usual limits of such assays; conditions: source organism: Vaccinia virus WR
pKd: −log10 of the molar value.
Value Type: pKd

chain=ELMYIFAAL data_value=7.52
chain=EKMRRERAA data_value=8.74
chain=SKRTKSKIL data_value=6.85
chain=SNKYRIKSV data_value=8.58
chain=FFLQRLYFL data_value=8.17
chain=YPHYKSCAL data_value=6.00
chain=RQLTKFTDF data_value=6.81
chain=SLNFRFENV data_value=6.23
chain=VVAMRHLSL data_value=9.01
chain=YLRDHFYNL data_value=8.08
chain=SKKFKFNSQ data_value=5.16
chain=MMMKRLMFE data_value=7.12
chain=NKKYRCMAL data_value=8.73
chain=SIRFHIKEL data_value=9.34

---

biological target: HLA-B*07:02; test: IEDB peptide-MHC binding, purified MHC/competitive/radioactivity; filed as Kd, often an IC50 or EC50 that approximates it; bounds were set here for any values at or beyond the usual limits of such assays; details: source organism: Lymphocytic choriomeningitis virus (strain WE)
Value Type: Kd (nM)

chain=MPEWVNFKF scale_unit=nM data_value=2210

---

target: HLA-A*24:03; assay: IEDB peptide-MHC binding, purified MHC/direct/fluorescence; filed as Kd, often an IC50 or EC50 that approximates it; bounds were set here for any values at or beyond the usual limits of such assays; details: source organism: Camelpox virus CMS
Value Type: Kd (nM)

chain=YYKDDISYF system_tested=HLA-A*24:03 scale_unit=nM data_value=3.7

---

molecular target: HLA-B*15:17; experiment: IEDB peptide-MHC binding, purified MHC/direct/fluorescence; filed as Kd, often an IC50 or EC50 that approximates it; bounds were set here for any values at or beyond the usual limits of such assays; details: source organism: dengue virus type 3
Value Type: Kd (nM)

chain=ICSAVPVHW value_type=Kd scale_unit=nM data_value=374

---

biological target: HLA-B*07:02; test: IEDB peptide-MHC binding, purified MHC/direct/fluorescence; filed as Kd, often an IC50 or EC50 that approximates it; bounds were set here for any values at or beyond the usual limits of such assays; conditions: source organism: Camelpox virus M-96
Value Type: Kd

chain=ALYSYASAK system_tested=HLA-B*07:02 value_type=Kd data_value="≥ 20 µM"

---

molecular target: HLA-C*04:01; assay: IEDB peptide-MHC binding, purified MHC/direct/fluorescence; filed as Kd, often an IC50 or EC50 that approximates it; bounds were set here for any values at or beyond the usual limits of such assays; settings: source organism: Tokudaia muenninki
Value Type: Kd

chain=YYNAFQWAI data_value="≥ 20 µM"

---

target: HLA-A*11:01; experiment: IEDB peptide-MHC binding, purified MHC/direct/fluorescence; filed as Kd, often an IC50 or EC50 that approximates it; bounds were set here for any values at or beyond the usual limits of such assays; settings: source organism: Mammarenavirus juninense
Value Type: Kd

chain=QVKRREGMF data_value="≥ 20 µM"

---

target: HLA-C*08:02; experiment: IEDB peptide-MHC binding, purified MHC/direct/fluorescence; filed as Kd, often an IC50 or EC50 that approximates it; bounds were set here for any values at or beyond the usual limits of such assays; settings: source organism: Burkholderia mallei NCTC 10229
Value Type: Kd (nM)

chain=FQPQSGNAM scale_unit=nM data_value=576

---

Measured Kd by item
biological target: HLA-A*03:01; assay: IEDB peptide-MHC binding, purified MHC/direct/fluorescence; filed as Kd, often an IC50 or EC50 that approximates it; bounds were set here for any values at or beyond the usual limits of such assays; settings: source organism: Zaire ebolavirus
Value Type: Kd

chain=KQIPIWLPL system_tested=HLA-A*03:01 value_type=Kd data_value="≥ 20 µM"
chain=TPSHYSGNI system_tested=HLA-A*03:01 value_type=Kd data_value="≥ 20 µM"

---

target: HLA-A*02:11; assay: IEDB peptide-MHC binding, purified MHC/direct/fluorescence; filed as Kd, often an IC50 or EC50 that approximates it; bounds were set here for any values at or beyond the usual limits of such assays; conditions: source organism: Limestone Canyon virus
pKd: −log10 of the molar value.
Value Type: pKd

chain=YKSRCYVGL data_value="≤ 4.70"

---

molecular target: HLA-B*07:02; test: IEDB peptide-MHC binding, purified MHC/competitive/radioactivity; filed as Kd, often an IC50 or EC50 that approximates it; bounds were set here for any values at or beyond the usual limits of such assays; conditions: source organism: Dengue virus 2 Jamaica/1409/1983
Value Type: Kd (µM)

chain=GPWHLGKLEM value_type=Kd data_value=0.0593

---

biological target: HLA-B*83:01; assay: IEDB peptide-MHC binding, purified MHC/competitive/fluorescence; filed as Kd, often an IC50 or EC50 that approximates it; bounds were set here for any values at or beyond the usual limits of such assays; details: source organism: Coxiella burnetii Dugway 5J108-111
pKd: −log10 of the molar value.
Value Type: pKd

chain=MTFPVSLEY value_type=pKd data_value=5.46

Taken from the Immune Epitope Database (IEDB).
